Assay: Metabolic stability in simulated intestinal fluid at pH 6.8 measured after 2 hrs by HPLC analysis
Assay type: ADME
Settings: read-out: Stability
observable: remaining at 2 h (%)
Numbers only; they are read as %.

Task item: Tell me the measured remaining at 2 h of CCN(CC)/[N+]([O-])=N/OCOC(=O)/C=C/c1ccc(OC(=O)OCN2C(=O)SC(Cc3ccc(OCCN(C)c4ccccn4)cc3)C2=O)c(OC)c1 (stereo unspecified) , please.
Reply: 97.7

* * *

Biological target: hERG (KCNH2) (Homo sapiens, UniProt Q12809)
Sequence (Q12809 whole entry): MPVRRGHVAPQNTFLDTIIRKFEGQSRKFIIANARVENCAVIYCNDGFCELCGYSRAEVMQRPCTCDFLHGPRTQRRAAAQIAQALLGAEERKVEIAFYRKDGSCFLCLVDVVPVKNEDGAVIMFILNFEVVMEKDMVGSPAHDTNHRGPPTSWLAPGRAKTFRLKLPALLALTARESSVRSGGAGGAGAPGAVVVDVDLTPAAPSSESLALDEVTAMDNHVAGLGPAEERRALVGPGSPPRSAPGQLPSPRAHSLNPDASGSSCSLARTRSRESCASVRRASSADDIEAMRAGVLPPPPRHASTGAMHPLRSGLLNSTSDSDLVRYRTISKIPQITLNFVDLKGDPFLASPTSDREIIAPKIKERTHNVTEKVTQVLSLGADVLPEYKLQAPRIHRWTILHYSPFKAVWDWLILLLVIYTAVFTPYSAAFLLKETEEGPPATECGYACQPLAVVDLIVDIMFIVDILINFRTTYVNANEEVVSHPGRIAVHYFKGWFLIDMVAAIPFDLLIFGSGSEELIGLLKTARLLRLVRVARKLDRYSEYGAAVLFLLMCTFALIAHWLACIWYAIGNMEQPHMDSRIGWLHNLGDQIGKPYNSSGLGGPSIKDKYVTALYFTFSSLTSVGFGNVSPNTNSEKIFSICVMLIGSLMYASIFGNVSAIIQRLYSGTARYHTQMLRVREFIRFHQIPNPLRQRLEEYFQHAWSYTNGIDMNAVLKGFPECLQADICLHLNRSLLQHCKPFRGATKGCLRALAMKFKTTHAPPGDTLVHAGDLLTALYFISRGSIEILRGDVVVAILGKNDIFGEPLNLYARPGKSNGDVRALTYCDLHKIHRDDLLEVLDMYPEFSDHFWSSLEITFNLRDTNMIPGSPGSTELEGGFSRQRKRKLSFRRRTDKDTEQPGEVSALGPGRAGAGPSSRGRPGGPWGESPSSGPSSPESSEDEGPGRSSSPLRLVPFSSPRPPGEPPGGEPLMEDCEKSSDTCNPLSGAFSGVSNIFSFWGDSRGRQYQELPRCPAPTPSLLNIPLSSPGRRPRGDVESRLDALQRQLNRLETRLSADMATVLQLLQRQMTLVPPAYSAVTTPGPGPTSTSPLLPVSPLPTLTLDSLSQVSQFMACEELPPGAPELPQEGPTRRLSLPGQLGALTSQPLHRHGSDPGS
Test: Inhibition of human ERG expressed in CHO cells at 5 uM by patch clamp assay relative to control
Assay type: cell-based
Settings: CHO cells that express hERG
observable: inhibition at 5 µM (%)
Numbers only; they are read as %.

[[record]]
compound = "CCN(CC)/[N+]([O-])=N/OCOC(=O)/C=C/c1ccc(OC(=O)OCN2C(=O)SC(Cc3ccc(OCCN(C)c4ccccn4)cc3)C2=O)c(OC)c1 (configuration not stated)"
target_under_test = "hERG (KCNH2) (Homo sapiens, UniProt Q12809)"
observable = "inhibition at 5 µM"
assay_result = 14.5


In the following, a different compound is considered.
Task item: Record lookup: for hERG (KCNH2) (Homo sapiens, UniProt Q12809), what inhibition at 5 µM belongs to CN(CCOc1ccc(CC2SC(=O)NC2=O)cc1)c1ccccn1 (configuration not stated) ?
Reply: 23.3
